Where do these numbers come from? They come from patent US9353081B2.

target: human CYP11B2 (Homo sapiens (Human), UniProt P19099); experiment: G-402 cellular enzyme assay, human CYP11B2 (aldosterone release, HTRF); settings: G-402 cells expressing human CYP11B2; 1 μM Deoxycorticosterone
Sequence (P19099 25-503): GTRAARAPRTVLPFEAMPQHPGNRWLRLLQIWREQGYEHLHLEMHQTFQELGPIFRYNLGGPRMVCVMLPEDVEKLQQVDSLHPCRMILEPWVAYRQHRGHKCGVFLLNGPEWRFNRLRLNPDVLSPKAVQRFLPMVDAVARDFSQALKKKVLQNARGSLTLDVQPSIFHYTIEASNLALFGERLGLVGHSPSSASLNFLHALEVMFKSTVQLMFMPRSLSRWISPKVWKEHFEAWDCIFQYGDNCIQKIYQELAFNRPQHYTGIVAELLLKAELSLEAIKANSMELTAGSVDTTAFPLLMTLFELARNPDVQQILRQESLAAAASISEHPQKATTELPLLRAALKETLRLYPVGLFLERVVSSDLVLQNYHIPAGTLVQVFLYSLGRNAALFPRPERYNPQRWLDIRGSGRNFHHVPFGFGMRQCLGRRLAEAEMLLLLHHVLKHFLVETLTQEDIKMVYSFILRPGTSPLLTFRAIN
Entries whose EC50 is below 0.04 µM take 1; entries at or above 0.04 µM take 0.

compound | className
CC(O)C(=O)NC1CCCc2c(-c3ccc4c(c3)CCC(=O)N4C)cncc21 (stereo not shown) | 0
CCC(=O)NC1CCCc2c(-c3ccc4c(c3)CCC(=O)N4C)cncc21 (racemic) [Example 1] | 1
C[C@@H](O)C(=O)NC1CCCc2c(-c3ccc4c(c3)CCC(=O)N4C)cncc21 (single isomer, unassigned; (-)) [Example 19] | 0
CCS(=O)(=O)NC1CCCc2c(-c3cc(Cl)c4c(c3)CCC(=O)N4C)cncc21 (single isomer, unassigned; (-)) [Example 39] | 0
CN1C(=O)CCc2cc(-c3cncc4c3CCCC4O)ccc21 (racemic) [Example 67] | 1
CCC(=O)NC1CCCc2c(-c3cc(Cl)c4c(c3)CCC(=O)N4C)cncc21 (single isomer, unassigned; (-)) [Example 40] | 0
CCC(=O)NC1CCc2c(-c3cc(Cl)c4c(c3)CCC(=O)N4C)cncc21 (racemic) [Example 58] | 0
